Listing: t1/2 of selected binders
Biological target: T1, monkey GFRα3 expressed with a C-terminal myc-myc-hexahistidine tag (monkey (Mf), UniProt O60609 32-374 (human entry), limits assumed)
T1 construct: also called MfGFRα3-mmh; MfGFRα3-mmH
T1 chain: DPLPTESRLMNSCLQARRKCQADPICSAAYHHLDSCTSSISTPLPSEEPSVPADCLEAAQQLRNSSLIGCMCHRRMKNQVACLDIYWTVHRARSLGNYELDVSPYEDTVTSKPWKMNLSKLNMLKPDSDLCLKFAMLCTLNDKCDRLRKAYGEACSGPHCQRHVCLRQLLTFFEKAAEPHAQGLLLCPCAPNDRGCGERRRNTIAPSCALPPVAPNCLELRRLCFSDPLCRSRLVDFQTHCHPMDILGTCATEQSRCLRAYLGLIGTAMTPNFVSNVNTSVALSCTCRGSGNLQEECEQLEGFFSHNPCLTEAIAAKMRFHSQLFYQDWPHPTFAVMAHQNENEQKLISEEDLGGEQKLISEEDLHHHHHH
Assay: SPR, Ab captured, 37C
Express the result in min but write the number alone.

H4H2346S (antibody, human IgG4, V domains shown, human IgG4 Fc (H4H)) VH: QVQLVESGGGVVQPGRSLRLSCAASGFSFSDYVMHWVRQAPGKGLEWVASIWFDGSNEFYADSVKGRFTISRDNSKNTLFLQMNSLRAEDTAVYYCAKKGVLVATSAFDIWGQGTMVTVSS VL: EIVMTQSPSSLSASVGDRVTITCRASQSINNYLNWYHQKPGKAPKLLIYAASSLQSGVPSRFSGSGSGTDYTLTISSLQPEDFGNYYCQQSYRTSMYTFGQGTKVEIK
23
H4H2344S (antibody, human IgG4, V domains shown, human IgG4 Fc (H4H)) VH: EVQLVESGGGVVQPGRSLRLSCAASGFSFSDYVMHWVRQAPGKGLEWVASIWFDGSNEFYADSVKGRFTISRDNSKNTLFLQMNSLRAEDTAVYYCAKKGVLVATSAFDIWGQGTMVTVSS VL: DIQMTQSPSSLSASVGDRVTITCRASQSINNYLNWYHQKPGKAPKLLIYAASSLQSGVPSRFSGSGSGTDYTLTISSLQPEDFGNYYCQQSYRTSMYTFGQGTKVEIK
20

# input Looking for the measured t1/2 of H4H2342P (antibody, human IgG4, V domains shown, human IgG4 Fc (H4H)) VH: EVQLLESGGGLVQPGGSLRLSCAASGFTFSTYAMSWVRQAPGKGLEWVSAIRGNGVNTYYGDSMKGRFTISRDNSKDTLYLQMNSLRAEDTAVYYCAKNKWELLVFEYWGQGTLVTVSS VL: DIQMTQSPSSLSASVGDRVTITCRASQDISNYLAWYQQKPGKVPKLLIYAASTLQSGVPFRFSGSGSGTDFTLTISSLQPEDVATYYCQKYNSAPPFGPGTKVDIK , can you help?
# output 7
